# EXPERIMENT_SUMMARY: Permeability in PBS buffer measured after 18 hrs by PAMPA based LC-MS analysis
# Format: ADME
# CONDITION: read-out: permeability
Non-standard residues stand in square brackets, D forms with d. Residues, ends and D or L forms follow the SMILES beside them. NMeL = CN[C@@H](CC(C)C)C(=O)O; NMeV = CN[C@H](C(=O)O)C(C)C; Nva = CCC[C@H](N)C(=O)O; Sar = CNCC(=O)O
Examples of compounds with documented Papp at 18 h follow.
Your answer is read as ×10⁻⁶ cm/s, so omit the unit and give the number.

CCC[C@@H]1NC(=O)[C@H](CC(C)C)N(C)C(=O)[C@H](CC(C)C)N(C)C(=O)[C@H](CC(C)C)N(C)C(=O)[C@H](CC(C)C)N(C)C(=O)[C@@H](C)NC(=O)[C@H](C)NC(=O)[C@H](CC(C)C)N(C)C(=O)[C@H](C(C)C)NC(=O)[C@H](CC(C)C)N(C)C(=O)CN(C)C1=O :: 0.06

Here is the next item to consider.
Per the records, this compound ( CCC[C@@H]1NC(=O)[C@H](CC(C)C)N(C)C(=O)[C@H](C(C)C)N(C)C(=O)[C@H](CC(C)C)N(C)C(=O)[C@H](CC(C)C)N(C)C(=O)[C@@H](C)NC(=O)[C@H](C)NC(=O)[C@H](CC(C)C)N(C)C(=O)[C@H](C(C)C)NC(=O)[C@H](CC(C)C)N(C)C(=O)CN(C)C1=O (cyclo(A[dA][NMeL][NMeL][NMeV][NMeL][Nva][Sar][NMeL]V[NMeL])) ) has Papp at 18 h equal to 0.29
